- test: photoluminescence quantum yield (fraction); solvent given as SMILES
- test settings: in ClCCl
# strict inequality: photoluminescence quantum yield < 0.4 yields t, everything else yields f

Request: # check: photoluminescence quantum yield < 0.4 for c1ccc(-c2c3ccccc3c(-c3ccc4ccccc4c3)c3ccccc23)nc1
Result: f

Request: # check: photoluminescence quantum yield < 0.4 for O=c1c2cccc3cccc(c32)c2nc3c(F)c(F)c(F)c(F)c3n12
Result: f

Request: # check: photoluminescence quantum yield < 0.4 for CCCCN1C(=O)C(=C/C=C/C=C/C=C2N(CCCC)c3ccccc3N2CCCC)C(=O)N(CCCC)C1=S
Result: t

Request: # check: photoluminescence quantum yield < 0.4 for O=[N+]([O-])c1ccc(-c2nc3c(c4c2-c2ccccc2CC4)-c2ccccc2CC3)cc1
Result: t

Request: # check: photoluminescence quantum yield < 0.4 for CCN(CC)c1c2ccc(=[N+]3CCCCC3)cc-2oc2cc(N3CCCCC3)ccc12
Result: t

###

- test: photoluminescence quantum yield (fraction); solvent given as SMILES
- test settings: in c1ccccc1
assay endpoint: photoluminescence quantum yield
Reply briefly: the number, and no unit.

Request: Report photoluminescence quantum yield for COc1ccc([C@@H]2C[C@](O)(c3ccccn3)C[C@](O)(c3ccccn3)[C@H]2C(=O)c2ccc(N(c3ccccc3)c3ccccc3)cc2)cc1
Result: 0.93

Request: Report photoluminescence quantum yield for CCOC(=O)c1sc2nc3c(c(C#N)c2c1N)CCCCCC3
Result: 0.063

Request: Report photoluminescence quantum yield for CCOC(=O)CN(CC(=O)OCC)c1ccc(-c2cc(-c3ccccn3)nc(-c3ccccn3)c2)cc1
Result: 0.5

Request: Report photoluminescence quantum yield for CN(C)c1ccc2nc(-c3ccc(C(=O)OC(C)(C)C)cc3)sc2c1
Result: 0.85

Request: Report photoluminescence quantum yield for Cc1ccc(-c2c3ccc([nH]3)c3nc(c(-c4ccc(C#N)cc4)c4ccc([nH]4)c4ccc([nH]4)c(-c4ccc(C)cc4)c4ccc2o4)C=C3)cc1
Result: 0.175

Request: Report photoluminescence quantum yield for CN(C)c1cc(C#N)c(N(C)C)c(C#N)c1
Result: 0.57

###

- test: photoluminescence quantum yield (fraction); solvent given as SMILES
- test settings: in C1COCCO1
assay endpoint: photoluminescence quantum yield
Reply briefly: the number, and no unit.

Request: Report photoluminescence quantum yield for CCC(C)(C)c1ccc(-c2ccc(-c3ccccc3)cc2)cc1
Result: 0.65

Request: Report photoluminescence quantum yield for COc1ccc(C#Cc2ccc(C#N)cc2)cc1OC
Result: 0.16

Request: Report photoluminescence quantum yield for CN(C)c1c2ccccc2cc2ccccc12
Result: 0.013

Request: Report photoluminescence quantum yield for CC1(C)Cc2c(c3ccccc3c3nc4c5c(c6ccccc6c4nc23)OC(C)(C)C5)O1
Result: 0.47

###

- test: photoluminescence quantum yield (fraction); solvent given as SMILES
- test settings: in CO
Please provide measured photoluminescence quantum yield for the entries that follow.

Request: Report photoluminescence quantum yield for COc1c2ccccc2c(OC)c2c1c1cc(F)ccc1n2C
Result: 0.33

Request: Report photoluminescence quantum yield for COCCOCCOCCNc1cc2c3c(c(NCCOCCOCCOC)cc4c3c1C(=O)N(CCOCCOCCOC)C4=O)C(=O)N(CCOCCOCCOC)C2=O
Result: 0.33

Request: Report photoluminescence quantum yield for COc1ccc(/C=C2\OC(=O)c3cc(N)ccc32)cc1
Result: 0.29

Values compiled from the Deep4Chem optical property database.
